Biological target: human CD33 P132F (human, UniProt P20138 18-364)
Sequence (P20138 18-364 P132F limits assumed): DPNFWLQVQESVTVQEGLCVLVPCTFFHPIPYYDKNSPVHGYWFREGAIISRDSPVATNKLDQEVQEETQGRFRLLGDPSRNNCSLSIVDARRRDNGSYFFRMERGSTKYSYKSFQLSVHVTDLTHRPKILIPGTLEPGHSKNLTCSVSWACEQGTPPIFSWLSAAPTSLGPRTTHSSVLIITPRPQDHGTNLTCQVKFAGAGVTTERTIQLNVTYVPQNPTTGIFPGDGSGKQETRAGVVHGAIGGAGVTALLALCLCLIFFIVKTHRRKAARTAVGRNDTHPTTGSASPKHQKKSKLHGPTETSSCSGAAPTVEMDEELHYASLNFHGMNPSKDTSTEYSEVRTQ
Experiment: flow cytometry, HEK293-T, IgG;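 also: CD33 point mutants transiently expressed, antibody binding measured by fluorescence in duplicate, background subtracted and scaled to binding on wild-type CD33 as 100%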
Below: a set of entries, each annotated with reported Mean % WT Binding.
Value Type: Mean % WT Binding

Refmab #3 (antibody, human IgG1, V domains shown, tested in IgG format) VH: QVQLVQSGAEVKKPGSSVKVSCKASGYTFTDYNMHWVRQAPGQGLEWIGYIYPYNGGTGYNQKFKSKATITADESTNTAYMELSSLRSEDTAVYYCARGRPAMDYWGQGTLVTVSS VL: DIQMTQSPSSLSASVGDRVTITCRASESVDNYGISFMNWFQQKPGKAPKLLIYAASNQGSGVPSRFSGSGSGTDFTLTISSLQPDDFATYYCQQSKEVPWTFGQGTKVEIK | 79.4 % WT binding
Refmab #2 (antibody, human IgG1, V domains shown, tested in IgG format) VH: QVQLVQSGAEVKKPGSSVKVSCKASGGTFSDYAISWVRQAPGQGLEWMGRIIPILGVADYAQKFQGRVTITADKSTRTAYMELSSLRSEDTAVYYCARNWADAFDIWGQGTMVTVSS VL: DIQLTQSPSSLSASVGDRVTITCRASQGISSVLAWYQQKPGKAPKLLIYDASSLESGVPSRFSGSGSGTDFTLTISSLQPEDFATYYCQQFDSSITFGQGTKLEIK | 65.1 % WT binding
Refmab #1 (antibody, human IgG1, V domains shown, tested in IgG format; also called hP67.6) VH: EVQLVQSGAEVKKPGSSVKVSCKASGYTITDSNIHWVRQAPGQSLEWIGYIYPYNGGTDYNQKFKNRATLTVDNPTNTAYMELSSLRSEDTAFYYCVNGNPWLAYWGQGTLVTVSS VL: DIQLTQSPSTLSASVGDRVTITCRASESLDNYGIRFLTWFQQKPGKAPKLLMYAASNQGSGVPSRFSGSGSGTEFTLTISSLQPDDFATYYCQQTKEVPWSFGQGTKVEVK | 91.3 % WT binding
Refmab #4 (antibody, human IgG1, V domains shown, tested in IgG format) VH: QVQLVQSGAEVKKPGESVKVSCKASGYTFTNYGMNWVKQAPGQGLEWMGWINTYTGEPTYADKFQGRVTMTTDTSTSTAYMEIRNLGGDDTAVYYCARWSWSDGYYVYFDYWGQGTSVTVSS VL: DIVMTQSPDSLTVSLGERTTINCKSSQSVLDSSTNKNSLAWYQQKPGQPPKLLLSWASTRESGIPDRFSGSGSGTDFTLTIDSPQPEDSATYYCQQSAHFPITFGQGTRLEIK | 71.3 % WT binding
